System: 931267-113-T-J1-PDC KRAS spheroid with HUVEC/MSC, viability
Assay: Anticancer human tumor 931267-113-T-J1-PDC patient-derived colon adenocarcinoma cell line growth inhibition [KRAS2]
Conditions: compound alone; run of 08/19/2021
Below: a set of entries, each annotated with reported IC50.

molecule	IC50
C=CC(=O)N1CCN(c2nc(=O)n(-c3c(C)ccnc3C(C)C)c3nc(-c4c(O)cccc4F)c(F)cc23)C(C)C1 (configuration not stated)	> 10 µM
CC1OCC2(CCN(c3cnc(Sc4ccnc(N)c4Cl)c(N)n3)CC2)C1N (configuration not stated)	> 10 µM

---

Below: a set of entries, each annotated with reported viability, T/C.
Test system: 931267-113-T-J1-PDC KRAS spheroid with HUVEC/MSC, viability
Assay: Anticancer human tumor 931267-113-T-J1-PDC cell line growth inhibition [KRAS2];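 further: compound exposure lasted 7 days before the readout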;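 on viability, T/C: 100% = DMSO vehicle control viability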
Conditions: second compound 0.0316 µM; first compound 1 µM; stronger effect = lower value
recordedEndpoint: viability, T/C (%)

molecule	recordedEndpoint	experimentalValue
CCNC(=O)CC1N=C(c2ccc(Cl)cc2)c2cc(OC)ccc2-n2c(C)nnc21 (stereo not given) + C=CC(=O)N1CCN(c2nc(OCC3CCCN3C)nc3c2CCN(c2cccc4cccc(C)c24)C3)CC1CC#N	viability, T/C	51.9
Cn1nccc1Nc1nccc(-c2cc3c(s2)C(C)(C)N(CCN2CCOCC2)C3=O)n1 + C=CC(=O)N1CCN(c2nc(OCC3CCCN3C)nc3c2CCN(c2cccc4cccc(C)c24)C3)CC1CC#N	viability, T/C	23
CC1OCC2(CCN(c3cnc(Sc4ccnc(N)c4Cl)c(N)n3)CC2)C1N (stereo not given) + C=CC(=O)N1CCN(c2nc(OCC3CCCN3C)nc3c2CCN(c2cccc4cccc(C)c24)C3)CC1CC#N	viability, T/C	58.2
CC1(C)CCC(CN2CCN(c3ccc(C(=O)NS(=O)(=O)c4ccc(NCC5CCOCC5)c([N+](=O)[O-])c4)c(Oc4cnc5[nH]ccc5c4)c3)CC2)=C(c2ccc(Cl)cc2)C1 + C=CC(=O)N1CCN(c2nc(OCC3CCCN3C)nc3c2CCN(c2cccc4cccc(C)c24)C3)CC1CC#N	viability, T/C	83
COC(=O)c1ccc2c(C(=Nc3ccc(N(C)C(=O)CN4CCN(C)CC4)cc3)c3ccccc3)c(O)[nH]c2c1 + C=CC(=O)N1CCN(c2nc(OCC3CCCN3C)nc3c2CCN(c2cccc4cccc(C)c24)C3)CC1CC#N	viability, T/C	50.7

Where do these numbers come from? They come from PubChem BioAssay AID1963863.
